B1: ETS1 (parent)
chain: FSEPSFITESYQTLHPISSEELLS

# Variants of: B1
# assay_remarks: protein stability index of a GFP-peptide fusion (GPS, HEK-293T) (PSI 1-6); higher = more stable;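 further: lentivirally expressed fusions sorted by FACS into six bins by GFP to DsRed ratio, PSI derived from sequencing read proportions per bin multiplied by bin number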
# measurement_context: c terminus: a fixed tail appended
Collected protein stability index values appear next to each entry.

{"mut": "E3G", "protein stability index": 2}
{"mut": "S2W", "protein stability index": 2.1}
{"mut": "I7G", "protein stability index": 2.33}
{"mut": "S24E", "protein stability index": 2.54}

From here, focus on the item given below.
### Prompt Can you look up the measured protein stability index of S10H for me?
### Response 2.06
